Data origin: ChEMBL document CHEMBL1201862

- Test system: OVCAR-5
- procedure summary: NCI tumour cell line growth inhibition, 48 h
Activity calls are given as the source filed them. No stated cut-off is given here; in the data, active = GI50 up to about 1.1 µM and inactive = higher.
// values below are reported GI50

>  <molecule>
O=C(Nc1nc(C23CC4CC(CC(C4)C2)C3)cs1)c1cc2cc(Cl)ccc2oc1=O

>  <GI50>
> 100 µM (inactive)

$$$$
>  <molecule>
CSC1CC2C(CC1(C)SC)C2(C)C (stereo unspecified)

>  <GI50>
40.8 µM (inactive)

$$$$
>  <molecule>
CCCn1c(SCCSc2c3ccccc3c(-c3nc(F)nc(F)n3)n2CCC)c2ccccc2c1-c1nc(F)nc(F)n1

>  <GI50>
> 100 µM (inactive)

$$$$

// assay OVCAR-5, entry CCOC(=O)c1nnsc1N/N=C\c1ccc([N+](=O)[O-])cc1 , GI50 value = > 100 µM (inactive)

// assay OVCAR-5, entry N#CC(c1ccccc1)c1nc2ccc(N)cc2[n+]([O-])c1C(C#N)c1ccccc1 (stereo unspecified) , GI50 value = > 100 µM (inactive)

// assay OVCAR-5, entry O=C1NCCS(=O)(=O)N2CCC[C@@H]12 , GI50 value = > 100 µM (inactive)

// assay OVCAR-5, entry CCN(CC)C(=S)SS(=O)(=O)c1ccccc1C(=O)O , GI50 value = > 100 µM (inactive)

// assay OVCAR-5, entry O=C1C[C@@H]2[C@@H](c3ccccc3)[C@@H]3C(=O)c4ccccc4NC(=O)[C@H]3[C@]2(O)c2ccccc2N1 , GI50 value = > 100 µM (inactive)

// assay OVCAR-5, entry O=c1[nH]cnc2c1nnn2C1C=C(CO)C(O)C1O (stereo unspecified) , GI50 value = > 100 µM (inactive)

// assay OVCAR-5, entry S=C(NCc1ccccc1)c1nc[nH]c1C(=S)NCc1ccccc1 , GI50 value = 6.98 µM (inactive)

// assay OVCAR-5, entry COc1cc2c(cc1OC)C1(c3ccccc3)CN(C2)Cc2cc(OC)c(OC)cc21 , GI50 value = 35.6 µM (inactive)

// assay OVCAR-5, entry CSC1=NC=CCN1C , GI50 value = > 100 µM (inactive)

// assay OVCAR-5, entry CC1(C)[C@H]2CC[C@]1(C)[C@H](OC(=O)NNC(=O)O[C@@H]1C[C@@H]3CC[C@@]1(C)C3(C)C)C2 , GI50 value = 17.5 µM (inactive)

// assay OVCAR-5, entry COc1ccc(/N=c2\ssc(C(=S)Nc3ccc(OC)cc3)c2S)cc1 , GI50 value = > 100 µM (inactive)

// assay OVCAR-5, entry N#Cc1c(N)c2c(c(-c3ccccc3)c1-c1ccccc1)C(=O)N(NC(=O)c1ccccc1)C2=O , GI50 value = > 100 µM (inactive)

// assay OVCAR-5, entry C=CC1(C(=O)O)CCC(C(C)(C)C)CC1 (stereo unspecified) , GI50 value = > 100 µM (inactive)

// assay OVCAR-5, entry CSc1ccc2c(cc1=O)[C@@H](NC(=O)c1ccc(N)cc1)CCc1cc(O)c(O)c(O)c1-2 , GI50 value = 22 µM (inactive)

// assay OVCAR-5, entry CN(C)CCCNC(=O)c1cc(NC(=O)CCCn2c3ccccc3c3ccccc32)cn1C , GI50 value = 73.6 µM (inactive)

// assay OVCAR-5, entry COC1(OC)N=C(N)C2(C#N)C(C)CC(=O)N(N(C)C)C12C#N (stereo unspecified) , GI50 value = > 100 µM (inactive)

// assay OVCAR-5, entry COC(=O)C1[C@H](C(=O)OC)C1(Br)CBr (stereo partly specified) , GI50 value = > 100 µM (inactive)

// assay OVCAR-5, entry COc1nc(-c2cn(S(=O)(=O)c3ccc(C)cc3)c3ccc(Br)cc23)cc(C(F)(F)F)c1C#N , GI50 value = 61.5 µM (inactive)
